system: DU-145; experiment: NCI tumour cell line growth inhibition, 48 h
Activity calls are given as the source filed them. Cut-off read from the data, not from the text of the source: active = GI50 up to about 1.1 µM and inactive = higher.
Outcome codes: 1 (yes) for active, 0 (no) for inactive

compound=CN(/N=C/c1cccc2cccnc12)c1ccc([N+](=O)[O-])cc1[N+](=O)[O-] qualitative_label="0 (no)"
compound=COc1ccc(-c2cc(=O)c3c(OC)c(O)c(OC)cc3o2)cc1 qualitative_label="0 (no)"
compound=CCCCCCCCCCCCCCCCCc1nc(C#N)c(N)o1 qualitative_label="0 (no)"
compound=Cc1c2c(n(CCN(C)C)c1C)NN=C(C#N)S2(=O)=O qualitative_label="0 (no)"
compound=O=c1oc2ccccc2cc1-c1cn2cc(Cl)ccc2n1 qualitative_label="0 (no)"
compound=Cc1ccc(-n2cnc3c(N)nc(N)nc32)cc1 qualitative_label="0 (no)"
compound=CCCCCCNC(=O)C1=C(C)NC(C)=C(C(=O)NCCCCCC)C1 qualitative_label="0 (no)"
compound=O=C(O)CCCc1ccc2ccc3ccccc3c2c1 qualitative_label="0 (no)"
compound=CC(=O)[O-].[Zn+].c1ccc(/C(=N\Nc2ccccn2)c2ccccn2)cc1 qualitative_label="1 (yes)"
compound=O=C1O/C(=C(/Cl)c2cccc3ccccc23)c2ccccc21 qualitative_label="0 (no)"
compound=CN(C)C(=S)SCC(N)=O qualitative_label="0 (no)"
compound="N#CC(O)CCOCc1ccccc1 (configuration not stated)" qualitative_label="0 (no)"
